tested on: E. coli strain 1A1; assay: Broth dilution assay (antibiotic assay), growth at 600 nm after 24 h; type: cell-based; settings: Escherichia coli, 1A1, 24 h, read-out: IC50 (concentration of IL required to decrease bacterial growth by 50%)
QUANTITY_MEASURED: IC50 (mM)
Your answer is read as mM, so omit the unit and give the number.

Form field: reported IC50 of "COc1ccc(C[N+](C)(C)C)cc1OC"
78.7
